Molecular target: tRNA (guanine-N(1)-)-methyltransferase (Haemophilus influenzae (strain ATCC 51907 / DSM 11121 / KW20 / Rd), UniProt P43912)
Sequence (P43912 whole entry): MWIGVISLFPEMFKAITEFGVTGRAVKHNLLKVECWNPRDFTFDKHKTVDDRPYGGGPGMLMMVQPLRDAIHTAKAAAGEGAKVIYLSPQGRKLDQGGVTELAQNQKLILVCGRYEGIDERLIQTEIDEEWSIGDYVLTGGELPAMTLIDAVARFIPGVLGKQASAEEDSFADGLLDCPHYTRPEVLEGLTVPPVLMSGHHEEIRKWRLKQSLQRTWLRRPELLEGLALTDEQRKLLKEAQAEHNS
Assay: ScintillationProximity_Assay
pIC50: −log10 of the molar value.

COMPOUND | pIC50
CN(C)c1ccccc1CNc1ccc(C(N)=O)cn1 [GTC000455A] | 5.20
Nc1nonc1C(=O)N[C@@H]1C[C@H]1c1ccc(S(N)(=O)=O)cc1 [GTC000466A] | 4.80
NC(=O)c1ccc(NCc2ccccc2N2CCOCC2)nc1 [GTC000470A] | 5.70
NC(=O)c1ccc(N[C@@H]2C[C@H](CO)[C@@H](O)C2)nc1 [GTC000468A] | 5.80
Nc1nonc1C(=O)N1CCN(Cc2ccccn2)CC1 [GTC000463A] | 4.80
